System: M17-TAU P301L cells
Assay: TAU-induced toxicity: LDH leakage of retinoic acid incubated M17-TAU P301L cells
Assay type: cell-based, human
Settings: Homo sapiens; reduction of LDH activity of retinoic acid incubated M17-TAU P301L cells; read-out: EC50 (μg/ml) TAU-induced toxicity
Excerpt: A TAU expression plasmid was constructed by sub-cloning the cDNA of human TAU-P301L (encoding for TAU with proline 301 substituted by a leucine residue) into mammalian expression vector pcDNA3.1 resulting in plasmid pcDNA3.1-TAU P301L. […] Exemplary compounds of the present invention are shown in Table 1, with their chemical structure and their EC50 value (expressed in μg/ml) as determined from example 12 in the TAU-induced toxicity experiment.
parameter: EC50
Please append the unit to your numeric answer.

Sample records with EC50:
O=C(NCCc1c[nH]c2ccc(F)cc12)c1cc(Cc2ccc(F)c(F)c2)on1 [Compound 2]	0.002 µg/mL
O=C(NCCc1c[nH]c2ccc(F)cc12)c1cc(Cc2ccc(F)cc2)on1 [Compound 4]	0.0022 µg/mL

Would you mind telling me what EC50 value was observed for O=C(NCCc1c[nH]c2ccc(F)cc12)c1cc(Cc2ccc(F)cc2F)on1 [Compound 1] ?
0.002 µg/mL

EC50 for O=C(NCCc1c[nH]c2ccc(F)cc12)c1cc(Cc2cc(F)cc(F)c2)on1 [Compound 3] ?
0.0021 µg/mL

Values from patent US11939324B2
